- Assay system: T1, human PACAP38 (human, not fully specified; C-terminal lysine is amidated; N-terminal or C-terminal biotin in the HTRF and PC-12 cell binding assays)
- T1 peptide: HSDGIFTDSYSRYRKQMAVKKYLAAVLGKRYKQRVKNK
- Procedure summary: cell-based or functional assay
Recorded metric: IC50, 0.1 nM PACAP38-induced PAC1-R mediated cAMP increase (nM)
Field: numeric (nM). Do not append units.

These solved cases illustrate the format of a correct answer.
Binder	Recorded result
anti-PACAP antibody Ab11 (antibody, human IgG1, kappa, N297A, V domains shown, full-length rabbit/human chimeric antibody) VH: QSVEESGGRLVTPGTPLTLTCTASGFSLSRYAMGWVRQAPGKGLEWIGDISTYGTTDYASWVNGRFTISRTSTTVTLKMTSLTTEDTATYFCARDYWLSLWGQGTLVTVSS VL: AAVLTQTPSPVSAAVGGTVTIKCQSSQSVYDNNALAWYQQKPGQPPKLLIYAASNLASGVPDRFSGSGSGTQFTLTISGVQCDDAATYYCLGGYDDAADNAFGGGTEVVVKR	0.0567
anti-PACAP antibody Ab4 (antibody, human IgG1, kappa, N297A, V domains shown, full-length rabbit/human chimeric antibody) VH: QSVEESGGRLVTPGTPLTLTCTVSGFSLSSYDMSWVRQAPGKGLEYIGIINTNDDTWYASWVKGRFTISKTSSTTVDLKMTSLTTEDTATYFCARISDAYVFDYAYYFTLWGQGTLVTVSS VL: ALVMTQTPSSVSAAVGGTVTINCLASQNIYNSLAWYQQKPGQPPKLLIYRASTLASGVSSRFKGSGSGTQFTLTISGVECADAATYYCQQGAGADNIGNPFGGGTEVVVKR	0.34

Supply reported IC50, 0.1 nM PACAP38-induced PAC1-R mediated cAMP increase belonging to this binder: anti-PACAP antibody Ab16 (antibody, human IgG1, kappa, N297A, V domains shown, full-length rabbit/human chimeric antibody) VH: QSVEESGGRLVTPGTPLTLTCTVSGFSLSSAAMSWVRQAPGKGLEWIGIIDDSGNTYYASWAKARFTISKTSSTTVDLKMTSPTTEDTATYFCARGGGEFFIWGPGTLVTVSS VL: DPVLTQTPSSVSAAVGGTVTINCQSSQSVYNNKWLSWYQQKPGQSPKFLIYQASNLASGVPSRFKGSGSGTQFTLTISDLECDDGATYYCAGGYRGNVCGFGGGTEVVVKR
0.212
